Test: Clearance in rat at 1 mg/kg, iv bolus measured over 24 hrs
Format: ADME, organism-based
Conditions: in vivo
assayReadout: clearance (L/h/kg)
Give a bare numeral; the unit L/h/kg is implied.

Data point: `Cc1nnc(N2C[C@H]3CC[C@@H](C2)[C@@H]3Nc2nc3c(O[C@@H](C)C(F)(F)F)ccc(C(F)(F)F)n3n2)o1` ; clearance = 0.228

====

Experiment: Fraction unbound in mouse plasma
Assay type: ADME, cell-free
Parameter threshold = 0.02. Response is 1 when fraction unbound meets or exceeds it, else -1.

Take a look at these entries with their results.
[[record]]
smilesrepr = "COc1cccn2nc(N[C@@H]3[C@@H]4CC[C@H]3CN(c3nc(C)ns3)C4)nc12"
answerlabel = 1

[[record]]
smilesrepr = "Cc1nsc(N2C[C@H]3CC[C@@H](C2)[C@@H]3Nc2nc3c(O[C@@H](C)C(F)(F)F)cccn3n2)n1"
answerlabel = 1

[[record]]
smilesrepr = "Cc1cc(N2C[C@H]3CC[C@@H](C2)[C@@H]3Nc2nc3c(OCC(F)F)ccc(C(F)(F)F)n3n2)ncn1"
answerlabel = -1

[[record]]
smilesrepr = "Cc1noc(N2C[C@H]3CC[C@@H](C2)[C@@H]3Nc2nc3c(OCC(F)(F)F)ccc(C(F)(F)F)n3n2)n1"
answerlabel = 1

[[record]]
smilesrepr = "Cc1cc(N2C[C@H]3CC[C@@H](C2)[C@@H]3Nc2nc3c(OCC(F)(F)C(F)(F)F)cccn3n2)on1"
answerlabel = 1

[[record]]
smilesrepr = "Cc1noc(N2C[C@H]3CC[C@@H](C2)[C@@H]3Nc2nc3c(OCC(F)(F)F)cccn3n2)n1"
answerlabel = 1


For the next question, use this molecule.
Ask | Would you say `Cc1nsc(N2CC[C@@H](Nc3nc4c(-c5ccc(F)c(F)c5F)cccn4n3)C(F)(F)C2)n1` shows fraction unbound at minimum 0.02?
Reply | -1

====

Assay: Covalent protein binding in human liver microsomes assessed per mg protein in presence of NADPH
Format: ADME, Microsome
Let's look at some compounds and their measured PB.
Report the figure in pmol without appending any unit label.

// sample `Cc1nsc(N2C[C@H]3CC[C@@H](C2)[C@@H]3Nc2nc3c(OCC(F)(F)F)cccn3n2)n1` , its PB was 30

# compound `Cc1cc(N2C[C@H]3CC[C@@H](C2)[C@@H]3Nc2nc3c(OCC(F)(F)F)cccn3n2)sn1` ; its PB = 96

// sample `Cc1nsc(N2CC[C@@H](Nc3nc4c(-c5ccc(F)c(F)c5F)cccn4n3)C(F)(F)C2)n1` , its PB was 149

Form field PB, entry Cc1nsc(N2CC3CCC(C2)C3Nc2nc3c(-c4ccc(F)c(F)c4F)cccn3n2)n1 (centres undefined) : 105

====

Assay: Volume of distribution at steady state in rat at 1 mg/kg, iv bolus measured over 24 hrs
Type: ADME, organism-based
Settings: in vivo, read-out: Vdss
assayReadout: Vd (L/kg)
// note: answer is a bare numeric in L/kg

For `Cc1nnc(N2C[C@H]3CC[C@@H](C2)[C@@H]3Nc2nc3c(O[C@@H](C)C(F)(F)F)ccc(C(F)(F)F)n3n2)o1` the compound record lists Vd as 2.2

====

Assay: Solubility of compound by lyophilisation solubility assay
Format: physicochemical
Examples of compounds with documented solubility follow.
Numbers only here, please. The scale is µg/mL.

Here is how some compounds turned out for solubility.
[[record]]
compound = "Cc1noc(N2C[C@H]3CC[C@@H](C2)[C@@H]3Nc2nc3c(OCC(F)(F)F)ccc(C(F)(F)F)n3n2)n1"
assayreadout = "solubility"
measvalue = 55

[[record]]
compound = "COc1cccn2nc(N[C@@H]3[C@@H]4CC[C@H]3CN(c3nc(C)ns3)C4)nc12"
assayreadout = "solubility"
measvalue = 396

[[record]]
compound = "Cc1noc(N2C[C@H]3CC[C@@H](C2)[C@@H]3Nc2nc3c(OCC(F)(F)C(F)(F)F)cccn3n2)n1"
assayreadout = "solubility"
measvalue = 144


Next compound, solubility to be filled in.
Record `Cc1nsc(N2C[C@H]3CC[C@@H](C2)[C@@H]3Nc2nc3c(OCC4COC4)cccn3n2)n1` . Reported solubility: 456
